Biological target: Low Density Lipoprotein Receptor (LDLR), recombinant (UniProt P01130 22-788)
Test: SPR; HBS + 0.05% P20
pKd: −log10 of the molar value.

{"BINDER": "LASHLRKLRKRLLR [T-072]", "pKd": 5.31}
{"BINDER": "LARHLRKLRKRLARDADDLQKRLAVYQAGAREGAER [T-047]", "pKd": 5.49}
{"BINDER": "HLRKLRKRLLRDGDKLYDRLAEYYARAKEAFDR [T-062]", "pKd": 5.65}
{"BINDER": "LASHLRKLRKRLLRDADDLQKRLAVYQA [T-044]", "pKd": 5.10}
{"BINDER": "T-117 (peptide) peptide: RSGADALESALKELKRFIREWTLGQSTEELRVRLASHLRKLRKRLLRDADDLQKRLAVYQA", "pKd": 5.35}
{"BINDER": "HLRKLRKRLLRSLVSQYFQTVTDYGKDL [T-109]", "pKd": 5.92}
{"BINDER": "HLRKLVKRLFRDGDKLQDRLAEYQARAKEAFDR [T-059]", "pKd": 5.14}
{"BINDER": "T-115 (peptide) peptide: DHINKVQRKVTHEIERLFLGQSTEELRVRLASHLRKLRKRLLRDADDLQKRLAVYQA", "pKd": 5.55}
{"BINDER": "EELRVRLASHLRKLRKRLLR [T-074]", "pKd": 5.61}
{"BINDER": "HLRKLRKRLLRSLVSQYRQTVTDYGKDL [T-110]", "pKd": 5.94}
{"BINDER": "HLRKLRKRLLRDGDKLQKRLAEYQARAKEAFDR [T-052]", "pKd": 5.76}
